These data points were gathered from ChEMBL document CHEMBL1131159.

Test system: Acanthocheilonema viteae
Assay: Macrofilarial reduction at 100 mg/kg dosage by subcutaneous administration for a period of 5 days against Acanthocheilonema viteae
Format: functional
Readout: Reduction (%)

1) C(=NNC1=NCCCN1)c1ccc2nc(-c3ccccc3)cn2c1 | 30
2) C(=NNC1=NCCCN1)c1ccc2nc(C=NNC3=NCCCN3)cn2c1 | 0
3) CC(C)NC(=N)NN=Cc1ccc(-c2cn3cc(C=NNC(=N)NC(C)C)ccc3n2)cc1 | 100
4) C(=NNC1=NCCN1)c1ccc2nc(C=NNC3=NCCN3)cn2c1 | 5
5) C(=NNc1ccccn1)c1ccc(-c2cn3cc(C=NNc4ccccn4)ccc3n2)cc1 | 0
6) N=C(c1ccc(-c2cn3ccccc3n2)cc1)N1CCCC1 | 0
7) C(=NNC1=NCCCN1)c1ccc(/C=C/c2cn3cc(C=NNC4=NCCCN4)ccc3n2)cc1 | 100
8) Cc1ccc(S(=O)(=O)NN=Cc2ccc(-c3cn4cc(C=NNS(=O)(=O)c5ccc(C)cc5)ccc4n3)cc2)cc1 | 0
9) N=C(c1ccc2nc(-c3ccccc3)cn2c1)N1CCOCC1 | 0
10) C(=NNC1=NCCC1)c1ccc(-c2cn3cc(C=NNC4=NCCC4)ccc3n2)cc1 | 24
11) C(=Cc1ccc(-c2cn3ccccc3n2)cc1)C1=NCCN1 | 28
12) C(=Cc1ccc(-c2cn3ccccc3n2)cc1)C1=NCCS1 | 0
13) c1cc(-c2cn3cc(C4=NCCN4)ccc3n2)ccc1C1=NCCN1 | 0
14) N=C(c1ccc(-c2cn3ccccc3n2)cc1)N1CCOCC1 | 0
15) c1ccc(-c2cn3cc(C4=NCCN4)ccc3n2)cc1 | 0
16) c1ccn2cc(-c3ccc(C4=NCCCN4)cc3)nc2c1 | 0
17) C(=NNC1=NCCCN1)c1ccc(-c2cn3ccccc3n2)cc1 | 0
18) C(=NNC1=NCCN1)c1ccc(/C=C/c2cn3cc(C=NNC4=NCCN4)ccc3n2)cc1 | 24
19) C(=NNC1=NCCN1)c1ccc2nc(-c3ccccc3)cn2c1 | 20
20) N=C(NN=Cc1ccc(-c2cn3ccccc3n2)cc1)N1CCCC1 | 47
21) C(/C=C/c1ccc(-c2cn3cc(/C=C/C=NNC4=NCCN4)ccc3n2)cc1)=NNC1=NCCN1 | 71
22) c1ccn2cc(-c3ccc(C4=NCCN4)cc3)nc2c1 | 20
23) C(=Cc1ccc(-c2cn3cc(C=CC4=NCCS4)ccc3n2)cc1)C1=NCCS1 | 0
24) C(=NNC1=NCCS1)c1ccc(-c2cn3cc(C=NNC4=NCCS4)ccc3n2)cc1 | 0
25) N=C(NN=Cc1ccc2nc(C=NNC(=N)N3CCCC3)cn2c1)N1CCCC1 | 0
26) N=C(c1ccc(-c2cn3ccccc3n2)cc1)N1CCCCC1 | 0
27) N=C(NN=Cc1ccc(-c2cn3cc(C=NNC(=N)N4CCCC4)ccc3n2)cc1)N1CCCC1 | 60
28) C(=NNC1=NCCN1)c1ccc(-c2cn3ccccc3n2)cc1 | 60
29) C(=NNC1=NCCCN1)c1ccc(-c2cn3cc(C=NNC4=NCCCN4)ccc3n2)cc1 | 100
30) N=C(NN=Cc1ccc(-c2cn3ccccc3n2)cc1)N1CCOCC1 | 0
31) Nc1ccc(C(=O)NN=Cc2ccc(-c3cn4cc(C=NNC(=O)c5ccc(N)cc5)ccc4n3)cc2)cc1 | 0

----------
Test system: Brugia pahangi
Experiment: Macrofilarial reduction at 100 mg/kg dosage by subcutaneous administration for a period of 5 days against Brugia pahangi
Assay type: functional
With a cut-off of 5%, any Reduction strictly below it is called y; any Reduction meeting it or above is called n.

1. C(/C=C/c1ccc(-c2cn3cc(/C=C/C=NNC4=NCCN4)ccc3n2)cc1)=NNC1=NCCN1 | n
2. CC(C)NC(=N)NN=Cc1ccc(-c2cn3cc(C=NNC(=N)NC(C)C)ccc3n2)cc1 | n
3. N=C(NN=Cc1ccc(-c2cn3ccccc3n2)cc1)N1CCOCC1 | n
4. Cc1ccc(S(=O)(=O)NN=Cc2ccc(-c3cn4cc(C=NNS(=O)(=O)c5ccc(C)cc5)ccc4n3)cc2)cc1 | n
5. c1ccn2cc(-c3ccc(C4=NCCN4)cc3)nc2c1 | n
6. C(=NNc1ccccn1)c1ccc(-c2cn3cc(C=NNc4ccccn4)ccc3n2)cc1 | y
7. C(=NNC1=NCCCN1)c1ccc(-c2cn3ccccc3n2)cc1 | y
8. C(=NNC1=NCCN1)c1ccc2nc(-c3ccccc3)cn2c1 | y
9. C(=Cc1ccc(-c2cn3ccccc3n2)cc1)C1=NCCS1 | y

----------
Reported Reduction values for the following compounds.
Tested on: Brugia pahangi
Experiment: Macrofilarial reduction at 100 mg/kg dosage by subcutaneous administration for a period of 5 days against Brugia pahangi
Format: functional
Readout: Reduction (%)

1. C(=NNC1=NCCN1)c1ccc(-c2cn3ccccc3n2)cc1 | 0
2. C(=NNC1=NCCCN1)c1ccc(/C=C/c2cn3cc(C=NNC4=NCCCN4)ccc3n2)cc1 | 32
3. C(=NNC1=NCCN1)c1ccc(/C=C/c2cn3cc(C=NNC4=NCCN4)ccc3n2)cc1 | 4
4. N=C(c1ccc(-c2cn3ccccc3n2)cc1)N1CCOCC1 | 29
5. N=C(NN=Cc1ccc(-c2cn3ccccc3n2)cc1)N1CCCC1 | 0
6. c1cc(-c2cn3cc(C4=NCCN4)ccc3n2)ccc1C1=NCCN1 | 35
7. C(=Cc1ccc(-c2cn3cc(C=CC4=NCCS4)ccc3n2)cc1)C1=NCCS1 | 0
8. C(=NNC1=NCCS1)c1ccc(-c2cn3cc(C=NNC4=NCCS4)ccc3n2)cc1 | 38
9. Nc1ccc(C(=O)NN=Cc2ccc(-c3cn4cc(C=NNC(=O)c5ccc(N)cc5)ccc4n3)cc2)cc1 | 8
10. N=C(NN=Cc1ccc2nc(C=NNC(=N)N3CCCC3)cn2c1)N1CCCC1 | 5

----------
Entries and their measured Reduction follow.
Test system: Brugia pahangi
Experiment: Macrofilarial reduction at 100 mg/kg dosage by subcutaneous administration for a period of 5 days against Brugia pahangi
Format: functional
Readout: Reduction (%)

1. N=C(c1ccc(-c2cn3ccccc3n2)cc1)N1CCCCC1 | 15
2. N=C(c1ccc(-c2cn3ccccc3n2)cc1)N1CCCC1 | 36
3. C(=Cc1ccc(-c2cn3ccccc3n2)cc1)C1=NCCN1 | 18
4. c1ccc(-c2cn3cc(C4=NCCN4)ccc3n2)cc1 | 42
5. c1ccn2cc(-c3ccc(C4=NCCCN4)cc3)nc2c1 | 0
6. N=C(NN=Cc1ccc(-c2cn3cc(C=NNC(=N)N4CCCC4)ccc3n2)cc1)N1CCCC1 | 0
7. N=C(c1ccc2nc(-c3ccccc3)cn2c1)N1CCOCC1 | 12
8. C(=NNC1=NCCN1)c1ccc2nc(C=NNC3=NCCN3)cn2c1 | 5
9. C(=NNC1=NCCC1)c1ccc(-c2cn3cc(C=NNC4=NCCC4)ccc3n2)cc1 | 5
10. C(=NNC1=NCCCN1)c1ccc2nc(-c3ccccc3)cn2c1 | 0

----------
Tested on: Meriones unguiculatus
Experiment: Compound was tested for macrofilarial reduction at 12.5 mg/kg dosage by subcutaneous administration for a period of 5 days against Brugia pahangi (Brugia pahangi).
Type: functional
Readout: Reduction (%)

1) CN1CCN(C(=N)/C=C/c2ccc(-c3cn4cc(/C=C/C(=N)N5CCN(C)CC5)ccc4n3)cc2)CC1 | 0
2) C(=NNC1=NCCN1)c1ccc(-c2cn3cc(C=NNC4=NCCN4)ccc3n2)cc1 | 0
3) N=C(NN=C/C=C/c1ccc(-c2cn3cc(/C=C/C=NNC(=N)N4CCCC4)ccc3n2)cc1)N1CCCC1 | 38
4) N=C(/C=C/c1ccc(-c2cn3cc(/C=C/C(=N)N4CCOCC4)ccc3n2)cc1)N1CCOCC1 | 0
5) C(/C=C/c1ccc(-c2cn3cc(/C=C/C=NNC4=NCCCN4)ccc3n2)cc1)=NNC1=NCCCN1 | 38
